- Experimental details: probe aNOTCH2 binding on compound microarray – biochemical, small-molecule microarray, 635/667 nm fluorescence, primary screen (AID 1121);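 also: score merges feature fluorescence read at 667 nm with its signal to noise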
- Setup conditions: higher = more signal
Measured endpoint: composite z-score
// keep it numeric: no unit symbol after the value

Recorded composite z-score, per entry:
Compound	composite z-score
[N-]=[N+]=Nc1ccccc1C[C@@]1(C(N)=O)N=C(c2ccc(OCCCO)cc2)O[C@@H]1c1ccccc1N=[N+]=[N-]	0.0342
CCOC(=O)C[C@H]1[C@H](OC(=O)Cc2ccc3c(c2)OCO3)[C@@H](NC(=O)C2CCCCC2)c2cc(OCCCO)ccc2N1C(=O)c1ccccc1	-0.14
N#Cc1ccc(NN2C(C(O)c3ccc(Br)cc3)C=CC3C(=O)N(c4ccccc4)C(=O)C32)cc1 (stereo not given)	0.357
CCOC(=O)C[C@H]1[C@H](OC(=O)c2cc3ccccc3oc2=O)[C@@H](NC(=O)CC(C)C)c2cc(OCCCO)ccc2N1C(=O)c1ccc2ccccc2n1	-0.237
COC(=O)C1=CC(CCCO)=CC(c2cccs2)N(C)C=C1C(=O)OC (stereo not given)	-0.115

If you can, please state the reported composite z-score value of `COC(=O)[C@@]1(Cc2ccc(F)cc2)[C@H]2c3cc(C(=O)N4CCCC4)n(CCc4c[nH]c5ccccc45)c3C[C@H]2CN1C(=O)c1ccccc1` .
0.184

State the recorded composite z-score for this entry: `CC(C)[Si]1(C(C)C)OCc2cc(-c3ccc(-c4ccc(Cl)c(Cl)c4)o3)nc(-c3ccccc3)c21`
-0.234

Field request: composite z-score | item: CC1CC/C=C\[C@H]2OC34C=CCN(c5ccc6ccccc6c5)C(=O)[C@H]3N(CCCO)C(=O)[C@@H]4C2C(=O)O1 (stereo not given in full)
-0.16

Given `COc1ccc([Si](C)(C)[C@H]2[C@H](CC(=O)N3CCC[C@H]3CO)O[C@@]3(C(=O)N(Cc4ccc(N5CCOC5=O)cc4)c4ccccc43)[C@@H]2C)cc1` , state its recorded composite z-score.
-0.075

Which measured composite z-score value corresponds to `COc1ccc([Si](C)(C)[C@@H]2[C@@H](CC(=O)N3CCC[C@H]3CO)O[C@]3(C(=O)N(Cc4cccc(N5C(=O)COc6ccccc65)c4)c4ccccc43)[C@H]2C)cc1` ?
-0.167

Fill in: composite z-score of COc1cc2c(cc1O)C(c1ccc(CN3CCCC3)cc1)N(Cc1cc3c(cc1Br)OCO3)CC2 (stereo not given) is ___
-0.102

Item under review: `COC(=O)[C@@]1(Cc2ccc(F)cc2)[C@H]2c3cc(C(=O)N(C)C)n(CCc4ccc(OC)c(Br)c4)c3C[C@H]2CN1C(=O)c1ccccc1` . Reported composite z-score?
0.363

Given the compound `CCCN1C(=O)[C@@]2(Cc3ccccc31)N=C(c1ccc(OCCCO)cc1)O[C@H]2c1ccccc1` , what is its reported composite z-score?
0.0118

Param item = `CCOC(=O)C1=C[C@@H](c2ccccc2)N(S(=O)(=O)c2ccc(C)cc2)[C@H]1c1ccc(OC)cc1` ; retrieve measured composite z-score.
0.493

Give the measured composite z-score of CCCCCN1CC=CC23O[C@@H]4C=CCCOC(=O)C4[C@H]2C(=O)N(CCCCCCO)[C@@H]3C1=O (stereo not given in full) .
-0.203

Which composite z-score is reported for this compound? `CCOC(=O)C[C@H]1[C@H](OC(=O)Cc2ccc3c(c2)OCO3)[C@@H](NC(=O)c2ccc3ccccc3n2)c2cc(OCCCO)ccc2N1C(=O)c1ccccc1`
-0.18
